Would you kindly list composite z-score for each of these compounds?
# Tgt: Dihydroorotate dehydrogenase (quinone), mitochondrial (Plasmodium falciparum (isolate 3D7)) (UniProt Q08210)
# Sequence (Q08210 whole entry, looked up): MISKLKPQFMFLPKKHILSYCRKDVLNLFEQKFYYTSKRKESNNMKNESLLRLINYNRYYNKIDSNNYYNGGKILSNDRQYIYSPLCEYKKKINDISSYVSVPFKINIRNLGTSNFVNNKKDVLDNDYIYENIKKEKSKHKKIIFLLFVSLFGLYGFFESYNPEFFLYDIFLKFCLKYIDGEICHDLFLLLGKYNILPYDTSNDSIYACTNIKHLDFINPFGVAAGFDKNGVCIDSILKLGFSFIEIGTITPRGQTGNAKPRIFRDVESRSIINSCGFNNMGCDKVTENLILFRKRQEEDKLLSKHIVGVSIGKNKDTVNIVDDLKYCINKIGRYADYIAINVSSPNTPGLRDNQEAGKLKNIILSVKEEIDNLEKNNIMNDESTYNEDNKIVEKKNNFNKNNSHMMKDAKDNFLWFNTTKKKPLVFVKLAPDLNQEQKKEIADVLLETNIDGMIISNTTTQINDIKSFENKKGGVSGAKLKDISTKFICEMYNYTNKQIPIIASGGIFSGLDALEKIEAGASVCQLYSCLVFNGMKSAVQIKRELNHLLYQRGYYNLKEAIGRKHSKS
# Assay name: inhibition of P. falciparum DHODH – biochemical, C-terminal His tag, absorbance 600 nm, primary screen (AID 1175);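 also: recombinant parasite enzyme with a five histidine tag at its C terminus; test concentration not given here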
# Study conditions: PfDHODH enzyme, DCIP absorbance 600 nm; higher = more signal, called active from +8 up or from −8 down
# answer = number (no unit)

[Q] Consider the compound O=C1O[C@H](c2ccccc2)[C@H](c2ccccc2)N2[C@H]1[C@@H](C(=O)Nc1nc3ccccc3s1)[C@]1(C(=O)Nc3ccc(C#CC4=CCCCC4)cc31)[C@H]2c1ccc(OCCO)cc1 and give its measured composite z-score.
[A] -3.03

[Q] Reported composite z-score for C#C[C@H]1Oc2ccccc2S(=O)(=O)N2CCC[C@@H]12 : what is it?
[A] 0.112

[Q] // lookup composite z-score for CC(=O)N1Cc2ccccc2C[C@@]2(N=C(c3ccc(OCCCO)cc3)O[C@H]2c2ccccc2)C1=O
[A] -0.847

[Q] Query: composite z-score; subject: CC(=O)n1cc(C(O)C2C=CC3C(=O)N(c4ccccc4)C(=O)C3N2Nc2ccc(C#N)cc2)c2ccccc21 (configuration not stated)
[A] -0.796

[Q] If you can, please state the reported composite z-score value of COCC1=C([C@H](O)CCc2ccccc2)[C@H](CO)[C@@H]2C(=O)N(Cc3ccccc3)C(=O)[C@@H]2C1 .
[A] -1.91

[Q] Bench note: what composite z-score did COCCn1c(C(=O)N(C)C)cc2c1C[C@H]1CN(C(=O)c3ccccc3)[C@@](Cc3ccc(F)cc3)(C(=O)OC)[C@@H]21 show?
[A] -0.0005

[Q] Which composite z-score is listed for CCOC(=O)C1=CC[C@@H](c2cccc(Cl)c2)N(S(=O)(=O)c2ccc(C)cc2)[C@H]1c1ccc(C#N)cc1 ?
[A] 0.21

---

# Assay name: JC-1 mitochondrial signal, unstimulated HepG2 cells – cell-based, JC-1 fluorescence, 24 h, 100 nL compound, profiling panel (AID 1167); also: test concentration not given here
# Study conditions: HepG2 mitochondrial potential, higher = more signal
Decision: z-score compared against 0.3; not below it gives Y, below it gives N.

[Q] Quick check, z-score >= 0.3? [N-]=[N+]=NCc1ccccc1[C@H]1OC(c2ccc(OCCCO)cc2)=N[C@@]1(Cc1ccccc1)C(=O)NCC(O)CO (stereo not given in full)
[A] Y

[Q] Assess whether reported z-score for COC(=O)[C@@]1(Cc2ccc(OC)cc2)[C@H]2c3cc(C(=O)N4CCCC4)n(CCN4CCOCC4)c3C[C@H]2CN1C(=O)c1ccccc1 sits at 0.3 or higher.
[A] Y

[Q] Could you verify whether the entry CN1C(=O)C2C=CC(C(O)c3ccccc3)N(NC(=O)OC(C)(C)C)C2C1=O (stereo not given) shows z-score of no less than 0.3?
[A] N

[Q] Could you verify whether the entry C=CCC(OC(C)=O)[C@@H]1[C@@H](N(Cc2cc3ccccc3o2)C(=O)c2ccc(-c3ccccc3)cc2)c2cc(OCCCO)ccc2N1C(=O)Cc1ccc2ccccc2c1 (stereo not given in full) shows z-score of no less than 0.3?
[A] Y

[Q] Does COC(=O)[C@@]1(Cc2ccc(F)cc2)[C@H]2c3cc(C(=O)N4CCCC4)n(CCc4ccc(OC)c(Br)c4)c3C[C@H]2CN1C(=O)c1ccccc1 have a reported z-score of at least 0.3?
[A] N

[Q] // inclusive: z-score at least 0.3? input: CN(C)CCCC[C@@H]1NC(=O)[C@@H]2C[C@H](C(=O)NCc3ccc(F)cc3)[C@H](c3cccc(OCCO)c3)N2C1=O
[A] Y

[Q] // inclusive: z-score at least 0.3? input: [N-]=[N+]=NCc1ccccc1C[C@]1(C(=O)N2CCOCC2)N=C(c2ccc(OCCCO)cc2)O[C@H]1c1ccccc1
[A] N

[Q] Could you tell me if the measured z-score of CN1C(=O)C2C=CC(C(O)c3ccc(Br)cc3)N(Nc3ccccc3)C2C1=O (stereo not given) reaches 0.3 or more?
[A] N

[Q] Exam item: decide whether the reported z-score for Cc1ccc(S[C@]2(C(=O)NCCCN(C)C)CC(=O)N(C(C)C)[C@@H]2c2ccc(CO)cc2I)cc1 is at least 0.3.
[A] Y

[Q] Item Cc1ccc(S[C@]2(C(=O)NCCCN(C)C)CC(=O)N(Cc3ccccc3)[C@@H]2c2ccc(CO)cc2)cc1 with z-score of 0.3 or above?
[A] Y

[Q] I'd appreciate it if you could say whether C=C(C(=O)CC[C@H](OC(=O)c1cccnc1)c1ccccc1OCCO)C(C)C has z-score at least equal to 0.3.
[A] N

[Q] Does z-score meet or surpass 0.3 for COC(=O)[C@@]1(Cc2ccccc2)[C@H]2c3cc(C(=O)N(C)C)n(Cc4ccccc4)c3C[C@H]2CN1C(=O)c1ccccc1 ?
[A] Y

[Q] Quick check: does C=CCN1C(=O)[C@@]2(O[C@@H](CCO)[C@H]([Si](C)(C)c3ccc(OC)cc3)[C@H]2C)c2cc(N3C(=O)COc4ccccc43)ccc21 have z-score greater than or equal to 0.3?
[A] N

[Q] Tell me whether z-score is at least 0.3 here: Cc1ccc(S(=O)(=O)N2CC(C(=O)O)=CCC2c2ccccc2)cc1 (stereo not given)
[A] N

[Q] Does Cc1ccc(S[C@]2(C(=O)NCc3ccccc3)CC(=O)N(Cc3cc(C(F)(F)F)cc(C(F)(F)F)c3)[C@@H]2c2ccc(CO)cc2)cc1 have a reported z-score of at least 0.3?
[A] N

---

# Assay name: compound effects on multiple myeloma cell viability – MM1S, calcein-AM fluorescence, 48 h, basal, profiling panel (AID 1165);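 also: viability of MM1S multiple myeloma cells under basal unstimulated conditions; test concentration not given here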
# Study conditions: higher = more signal
Assay endpoint: z-score

[Q] Could you share which z-score value was measured for O=C1OCCC/C=C\[C@H]2OC34C=CCN(CCN5CCOCC5)C(=O)[C@H]3N(CCO)C(=O)[C@@H]4C12 (some centres undefined) ?
[A] 1.31

[Q] Can you share its z-score? I mean this molecule: C=CCN1C(=O)[C@@]2(O[C@@H](CCO)[C@H]([Si](C)(C)c3ccc(OC)cc3)[C@H]2C)c2cc(NC(C)=O)ccc21
[A] -1.36

[Q] Entry C=C[C@H](C)[C@H](O)c1ccc(OCCO)cc1 : reported z-score = ?
[A] 1.17

[Q] Any idea what its z-score is? The molecule is Cc1ccc(F)cc1S(=O)(=O)N[C@@H]1CCN(Cc2ccc(C(F)(F)F)cc2)C1
[A] -2.4

[Q] Consider the molecule shown here: O=C1C2C=CC(C(O)C3CC=CCC3)N(n3cnnc3)C2C(=O)N1Cc1ccccc1 (centres undefined) What is its recorded z-score?
[A] -0.379

[Q] GET /values?readout=z-score&item= O=C(NCC(O)CO)[C@@]1(Cc2ccccc2)N=C(c2ccc(OCCCO)cc2)O[C@H]1c1ccccc1 (some centres undefined)
[A] -1.93

[Q] Fill in the blank: the reported z-score of CCOC(=O)C1=CC[C@@H](c2cccc(Cl)c2)N(S(=O)(=O)c2ccc(C)cc2)[C@H]1c1ccc(C#N)cc1 is ____.
[A] -0.692

[Q] I'd like to know its z-score. The molecule in question is O=C(NCc1ccccc1)[C@@H]1c2ccccc2C(=O)N(Cc2cc(F)cc(C(F)(F)F)c2)[C@H]1c1ccc(CO)cc1
[A] 0.105

[Q] Name the reported z-score value associated with the molecule CC(C)(C)OC(=O)CC[C@]1(C(=O)NCC(O)CO)N=C(c2ccc(OCCCO)cc2)O[C@H]1c1ccccc1CN=[N+]=[N-] (some centres undefined)
[A] -1.1

[Q] Item COc1ccc([Si](C)(C)[C@@H]2[C@@H](CC(=O)N3Cc4ccccc4C[C@H]3CO)O[C@]3(C(=O)N(Cc4cccc(N5C(=O)COc6ccccc65)c4)c4ccccc43)[C@H]2C)cc1 has what recorded z-score?
[A] -0.296

[Q] // returns reported z-score for input CN(C)CCCCCCNC(=O)[C@@H]1C[C@@H]2C(=O)N[C@@H](Cc3ccccc3)C(=O)N2[C@@H]1c1cccc(OCCO)c1
[A] 0.802

[Q] // returns reported z-score for input O=C1C2C=CC(C(O)CCc3ccccc3)N(Nc3ccccc3)C2C(=O)N1c1ccccc1 (centres undefined)
[A] -0.46

[Q] Endpoint output: z-score of O[C@@H](Cc1ccccc1)[C@@H](/C=C/c1ccccc1)NCc1ccccc1Br . Value?
[A] -1.3

[Q] # lookup: z-score of Cc1ccc([C@H]2C(C(=O)O)=C[C@@H](C(C)C)N2S(=O)(=O)c2ccc(C)cc2)cc1
[A] 0.0411

[Q] Fill blank: measured z-score of the molecule O=C1O[C@H](c2ccccc2)[C@H](c2ccccc2)N2[C@H]1[C@@H](C(=O)NC[C@H](O)c1ccccc1)[C@]1(C(=O)Nc3ccc(C#CC4=CCCCC4)cc31)[C@H]2c1ccc(O)cc1 is ____.
[A] -3.18

[Q] Need z-score of COC(=O)[C@@]1(Cc2ccc(OC)cc2)[C@H]2c3cc(C(=O)N4CCCC4)n(CCN4CCOCC4)c3C[C@H]2CN1C(=O)c1ccccc1 , thanks.
[A] 0.847

[Q] I have this molecule here, O=C1NC(=O)C2C1C=CC(C(O)c1cccs1)N2Nc1ccccn1 (centres undefined) , and I need its recorded z-score.
[A] 0.119

[Q] What z-score value was documented for this molecule, O=C1OCC=C[C@H]2OC34C=CCN(CCN5CCOCC5)C(=O)[C@H]3N(CCCCCCO)C(=O)[C@@H]4[C@@H]12 (some centres undefined) ?
[A] 1.56

[Q] Quick one: z-score of NC(=O)NCC#Cc1ccc2c(c1)[C@]1(C(=O)N2)[C@H](c2ccc(O)cc2)N2[C@H](c3ccccc3)[C@H](c3ccccc3)OC(=O)[C@H]2[C@@H]1C(=O)N1CCN(c2ncccn2)CC1 ?
[A] 0.252

[Q] What value of z-score has been reported for the following molecule? O=C(NCCN1CCOCC1)[C@@H]1c2ccccc2C(=O)N(Cc2cc(F)cc(C(F)(F)F)c2)[C@H]1c1ccc(CO)cc1
[A] 0.34

[Q] GET /values?readout=z-score&item= O=C1O[C@@H](c2ccccc2)[C@@H](c2ccccc2)N2[C@@H](c3ccc(O)cc3)[C@]3(C(=O)Nc4ccccc43)[C@@H](C(=O)NC[C@H](O)c3ccccc3)[C@H]12
[A] -0.0487

[Q] Please look up its z-score: COCCOC(=O)N1C(=O)[C@@]2(c3cc(C#CCC(C(=O)OC)C(=O)OC)ccc31)[C@H](c1ccc(OCCO)cc1)N1[C@H](c3ccccc3)[C@H](c3ccccc3)OC(=O)[C@H]1[C@@H]2C(=O)NC[C@H](O)c1ccccc1
[A] 0.446

[Q] // z-score lookup, key: CC(C)C(=C=CC[C@H](O)c1ccccc1OCCO)CCO
[A] -0.256

[Q] Please give the measured z-score for this molecule: CN(C)CCCC[C@@H]1NC(=O)[C@@H]2C[C@H](C(=O)NCCCCCN)[C@H](c3ccc(O)cc3)N2C1=O
[A] 0.189

[Q] Which value of z-score has been reported for COc1ccc(CCNC(=O)[C@@]2(C)c3ccccc3C(=O)N(Cc3ccccc3)[C@H]2c2ccc(CO)cc2)cc1 in the records?
[A] -0.886

[Q] Entry COC(=O)[C@@]1(Cc2ccc(OC)cc2)[C@H]2c3cc(C(=O)N(C)C)n(Cc4ccc(OC)c(OC)c4)c3C[C@H]2CN1C(=O)c1ccccc1 : reported z-score = ?
[A] -1.32

[Q] Data request, read-out z-score, for C[C@H]1C2[C@H](Cc3ccccc3)NC(=O)[C@]23C(=O)N[C@H](Cc2ccccc2)C(=O)N[C@H](Cc2ccccc2)C(=O)NC/C=C/CCC/C=C/C3[C@@H]2O[C@]12C (some centres undefined)
[A] -1.01

[Q] Requested read-out: z-score. Entry: CN(C)CCCC[C@@H]1NC(=O)[C@@H]2C[C@H](C(=O)NCCCCCCN)[C@H](c3ccc(O)cc3)N2C1=O
[A] 0.405

[Q] Need z-score, item CC[C@@H]1C=C(C(=O)O)[C@H](c2ccc(C(C)C)cc2)N1S(=O)(=O)c1ccc(C)cc1
[A] -0.683
